PCC (tissue protein carbonyl content), Pre-treatment values, listed per item
- System: acetic acid-induced colitis
- experiment: acetic acid-induced colitis in rats: oxidative stress markers (PCC, TBARS) in colonic tissue
- measurement.setup: administered 10 minutes before induction of colitis; 5-ASA 100 mg/kg, LA 50 mg/kg, compounds 1 and 7 50 mg/kg; sacrificed 24 hr post induction; control 261 ± 27, AA alone 1687 ± 98
Lab note: record the figure alone, no unit after it.

The following compounds have reported results that may help.
compound	observed.measurement
O=C(O)c1cc2[nH]c(CCCCC3CCSS3)nc2cc1O (stereo not shown)	284
O=C(O)CCCC[C@@H]1CCSS1 (racemic) [lipoic acid, reference compound]	867

Task item: I'd like to know its PCC (tissue protein carbonyl content), Pre-treatment. The compound in question is `Cc1cc(O)c(C(=O)O)cc1/N=N\c1ccc2c(c1)C(C)(C)N([O])C2(C)C`
Reply: 293

Task item: PCC (tissue protein carbonyl content), Pre-treatment lookup needed for Nc1ccc(O)c(C(=O)O)c1 [Compound 5-ASA, 5-aminosalicylic acid, reference compound] , thanks.
Reply: 959
